test system: Escherichia coli NIHJ; assay: MIC, standard agar dilution method, Escherichia coli NIHJ; type: cell-based; conditions: Escherichia coli NIHJ; Mueller Hinton agar, 18 hours, 37° C.; read-out: MIC
What log10 of MIC was measured for each of the following?
# values: log10(MIC), units µg/mL

Compound	log10 of MIC
CO[C@@]1(NC(=O)[C@H](NC(=O)c2coc3cc(OC(C)=O)c(OC(C)=O)cc3c2=O)c2ccc(O)cc2)C(=O)N2C(C(=O)O)=C(CSc3nnnn3C)CS[C@@H]21 [Example 1]	-0.40
CO[C@@]1(NC(=O)[C@H](NC(=O)c2coc3cc(O)c(O)cc3c2=O)c2ccc(O)cc2)C(=O)N2C(C(=O)O)=C(CSc3nncs3)CS[C@@H]21 [Example 33]	0.80
CCOC(=O)Oc1cc2occ(C(=O)N[C@@H](C(=O)N[C@]3(OC)C(=O)N4C(C(=O)O)=C(COC(C)=O)CS[C@@H]43)c3ccc(O)cc3)c(=O)c2cc1OC(=O)OCC [Example 22]	0.80
CO[C@@]1(NC(=O)[C@H](NC(=O)c2coc3cc(OC(=O)OCC(Cl)(Cl)Cl)c(OC(=O)OCC(Cl)(Cl)Cl)cc3c2=O)c2ccccc2)C(=O)N2C(C(=O)O)=C(COC(C)=O)CS[C@@H]21 [Example 24]	1.10
CO[C@@]1(NC(=O)[C@H](NC(=O)c2coc3c(O)c(O)ccc3c2=O)c2ccccc2)C(=O)N2C(C(=O)O)=C(COC(C)=O)CS[C@@H]21 [Example 7]	0.50
CO[C@@]1(NC(=O)[C@H](NC(=O)c2coc3c(O)c(O)ccc3c2=O)c2ccc(O)cc2)C(=O)N2C(C(=O)O)=C(CSc3nnnn3CC(=O)O)CS[C@@H]21 [Example 18]	1.40
CCOC(=O)Oc1cc2occ(C(=O)N[C@@H](C(=O)N[C@]3(OC)C(=O)N4C(C(=O)O)=C(CSc5nnnn5CC(=O)O)CS[C@@H]43)c3ccc(O)cc3)c(=O)c2cc1OC(=O)OCC [Example 27]	0.50
CO[C@@]1(NC(=O)[C@H](NC(=O)c2coc3cc(O)c(O)cc3c2=O)c2ccccc2)C(=O)N2C(C(=O)O)=C(CSc3nnc(C)s3)CS[C@@H]21 [Example 6]	-0.10

Provide the reported log10 of MIC of each entry below, same order.
1. CCOC(=O)Oc1cc2occ(C(=O)N[C@@H](C(=O)N[C@]3(OC)C(=O)N4C(C(=O)O)=C(CSc5nnnn5CC(=O)OC)CS[C@@H]43)c3ccc(O)cc3)c(=O)c2cc1OC(=O)OCC [Example 20]
2. CO[C@@]1(NC(=O)[C@H](NC(=O)c2coc3c(OC(C)=O)c(OC(C)=O)ccc3c2=O)c2ccc(O)cc2)C(=O)N2C(C(=O)O)=C(CSc3nnnn3C)CS[C@@H]21 [Example 2]

1: 0.50; 2: 0.50

----------
tested on: Escherichia coli NIHJ; experiment: MIC, standard agar dilution method, Escherichia coli NIHJ; type: cell-based; settings: Escherichia coli NIHJ; Mueller Hinton agar, 18 hours, 37° C.; read-out: MIC
What MIC was measured for each of the following?
Numbers only, in µg/mL.

Give one value of MIC per listed molecule.
1. CO[C@@]1(NC(=O)[C@H](NC(=O)c2coc3cc(O)c(O)cc3c2=O)c2ccc(O)cc2)C(=O)N2C(C(=O)O)=C(CSc3nnc(CC(=O)O)s3)CS[C@@H]21
2. COC(=O)Cn1nnnc1SCC1=C(C(=O)O)N2C(=O)[C@](NC(=O)[C@H](NC(=O)c3coc4cc(O)c(O)cc4c3=O)c3ccc(O)cc3)(OC)[C@H]2SC1
3. CO[C@@]1(NC(=O)[C@H](NC(=O)c2coc3cc(OC(=O)OCC(Cl)(Cl)Cl)c(OC(=O)OCC(Cl)(Cl)Cl)cc3c2=O)c2ccc(O)cc2)C(=O)N2C(C(=O)O)=C(CSc3nnnn3C)CS[C@@H]21

3.13
1.56
6.25

// input: 5 molecules below; output: MIC for each
1. COC(=O)Cn1nnnc1SCC1=C(C(=O)O)N2C(=O)[C@](NC(=O)[C@H](NC(=O)c3coc4cc(OC(=O)OCC(Cl)(Cl)Cl)c(OC(=O)OCC(Cl)(Cl)Cl)cc4c3=O)c3ccc(O)cc3)(OC)[C@H]2SC1
2. CO[C@@]1(NC(=O)[C@H](NC(=O)c2coc3cc(O)c(O)cc3c2=O)c2ccc(O)cc2)C(=O)N2C(C(=O)O)=C(CSc3nnc(CC(=O)O)o3)CS[C@@H]21
3. CO[C@@]1(NC(=O)[C@H](NC(=O)c2coc3cc(O)c(O)cc3c2=O)c2ccc(O)cc2)C(=O)N2C(C(=O)O)=C(CSc3nnnn3C)CS[C@@H]21
4. CO[C@@]1(NC(=O)[C@H](NC(=O)c2coc3cc(O)c(O)cc3c2=O)c2ccc(O)cc2)C(=O)N2C(C(=O)O)=C(CSc3nnnn3CC(=O)O)CS[C@@H]21
5. CO[C@@]1(NC(=O)[C@H](NC(=O)c2coc3cc(OC(=O)OCC(Cl)(Cl)Cl)c(OC(=O)OCC(Cl)(Cl)Cl)cc3c2=O)c2ccc(O)cc2)C(=O)N2C(C(=O)O)=C(COC(C)=O)CS[C@@H]21

1. 6.25
2. 12.5
3. 0.4
4. 6.25
5. 12.5
